# Test system: SNB-75 CNS
# experimental-details: NCI tumour cell line growth inhibition, 48 h; in the data active means GI50 below about 0.43 µM; inactive means the rest
Labels: Y = active, N = inactive

>  <molecule>
C#CCN(Cc1nc2cc(C(F)(F)F)ccc2nc1-c1ccccc1)c1ccc(OC(F)(F)F)cc1

>  <category-label>
N

$$$$
>  <molecule>
CC(C)[C@H]1CC[C@H]2[C@@H](CC[C@H]3[C@](C)(CN)CCC[C@]23C)C1

>  <category-label>
N

$$$$
>  <molecule>
COc1cc(-c2nc3sccn3c2-c2ccnc(NCCNS(=O)(=O)c3ccc(Cl)cc3)n2)ccc1F

>  <category-label>
N

$$$$
>  <molecule>
Cn1ccnc1C(=O)/C=C/c1ccc(C(=O)Nc2ccc(S(F)(F)(F)(F)F)cc2)cc1

>  <category-label>
N

$$$$
>  <molecule>
Clc1ccc(/C=C/c2cc(N3CCOCC3)c3cc(Cl)c(Cl)cc3n2)cc1

>  <category-label>
N

$$$$
>  <molecule>
CCOc1ccccc1NC(=O)c1cc2ccccc2cc1O

>  <category-label>
N

$$$$
>  <molecule>
Cc1cc2cc3cc(C)c(N(C)C)cc3[n+](C)c2cc1N(C)C

>  <category-label>
N

$$$$
>  <molecule>
CN(CCCCCl)P(=O)(OCc1ccc([N+](=O)[O-])o1)OCC1OC(n2ccc(N)nc2=O)C(F)(F)C1O (stereo not given)

>  <category-label>
N

$$$$
>  <molecule>
c1ccc(C2CC(c3cccc(Nc4ccncc4)c3)=NN2c2ccccc2)cc1 (stereo not given)

>  <category-label>
N

$$$$
>  <molecule>
O=C1CC(c2cccc(O)c2)C2(C(=O)NC(=S)NC2=O)C(c2cccc(O)c2)C1 (stereo not given)

>  <category-label>
N

$$$$
>  <molecule>
CC(=O)N1N=C(c2ccc(Nc3nc(Nc4ccc(Cl)cc4)nc(Nc4ccc(Cl)cc4)n3)cc2)CC1c1ccc([N+](=O)[O-])cc1 (stereo not given)

>  <category-label>
N

$$$$
>  <molecule>
Cn1cc(C2=C(c3cccc(N)c3)C(=O)NC2=O)c2ccccc21

>  <category-label>
Y

$$$$
>  <molecule>
O=S(=O)(Cc1ccc(Cl)cc1Cl)c1ccc(Cl)cc1

>  <category-label>
N

$$$$
>  <molecule>
N#Cc1ncc(-c2ccc(C(F)(F)F)cc2)c(NCc2cc(C(F)(F)F)cc(C(F)(F)F)c2)n1

>  <category-label>
N

$$$$
>  <molecule>
Cc1cc(NCCCNc2ccnc3cc(Cl)ccc23)nc(N2CCN(C)CC2)n1

>  <category-label>
N

$$$$

====

# Tested on: MALME-3M melanoma
# experimental-details: NCI tumour cell line growth inhibition, 48 h; in the data active means GI50 below about 0.43 µM; inactive means the rest
Labels: 1.0 for active, 0.0 for inactive

>  <compound>
CN(c1cc2ncc(=O)[nH]c2cc1NC(N)=NCc1ccc(Cl)cc1)C1CCCCC1

>  <category-label>
0.0

$$$$
>  <compound>
COc1cccc(C2C3=C(COC3=O)N(CCO)c3cc(OC)ccc32)c1 (stereo not given)

>  <category-label>
1.0

$$$$
>  <compound>
COc1cc2c(cc1OCCCCCOc1cc3c(cc1OC)C(=O)N1CC(F)C[C@H]1C=N3)N=C[C@@H]1CC(F)CN1C2=O (stereo not given in full)

>  <category-label>
1.0

$$$$
>  <compound>
Cc1ccc(NC(=O)Cc2ccc(/C=C/C(=O)c3ncc[nH]3)cc2)cc1

>  <category-label>
0.0

$$$$
>  <compound>
O=c1c2ccccc2c(Br)c(Br)c2ccccc12

>  <category-label>
0.0

$$$$
>  <compound>
CC(C)[C@H]1CC[C@H]2[C@@H](CC[C@H]3[C@](C)(CN)CCC[C@]23C)C1

>  <category-label>
0.0

$$$$
>  <compound>
CCOc1ccc(-c2cnnn2-c2nonc2-n2cccc2)cc1

>  <category-label>
1.0

$$$$
>  <compound>
O=C1CC(c2cccc(O)c2)C2(C(=O)NC(=S)NC2=O)C(c2cccc(O)c2)C1 (stereo not given)

>  <category-label>
0.0

$$$$
>  <compound>
Cn1ccnc1C(=O)/C=C/c1ccc(C(=O)Nc2ccc(S(F)(F)(F)(F)F)cc2)cc1

>  <category-label>
0.0

$$$$
>  <compound>
CC(C)Nc1ccc(Nc2ccccc2)cc1

>  <category-label>
0.0

$$$$

====

# System: OVCAR-4 ovarian
# experimental-details: NCI tumour cell line growth inhibition, 48 h

>  <compound>
COc1ccc(/C=C2\C(=O)N(C)C(=O)c3cc(OC)c(OC)cc32)cc1OC

>  <TGI>
> 100 µM

$$$$
>  <compound>
C=CCOC(=O)Cn1cc(C)c(=O)[nH]c1=O

>  <TGI>
> 100 µM

$$$$
>  <compound>
O=S(=O)(N/N=C/c1ccc(Cl)c(Cl)c1)c1ccccc1

>  <TGI>
> 100 µM

$$$$
>  <compound>
Cc1nc2ccc(Cl)cc2c2c1CCS2

>  <TGI>
> 100 µM

$$$$
>  <compound>
COc1ccc(N(CN2C(=O)CCC2C(=O)O)C(C)=O)cc1 (configuration not stated)

>  <TGI>
> 100 µM

$$$$
>  <compound>
Cn1ccc(C(=O)N2CCSC2=S)c(OCc2ccccc2)c1=O

>  <TGI>
> 100 µM

$$$$
>  <compound>
O=C1Cc2c([nH]c3c(Cl)cccc23)-c2ccccc2N1

>  <TGI>
> 100 µM

$$$$
>  <compound>
CN(c1cc2ncc(=O)[nH]c2cc1NC(N)=NCc1ccc(Cl)cc1)C1CCCCC1

>  <TGI>
17.2 µM

$$$$
>  <compound>
Cc1ccc2c(c1)c1nc3cc(C)c(C)cc3nc1n2CCN(C)C

>  <TGI>
19.6 µM

$$$$
>  <compound>
Cc1ncc([N+](=O)[O-])n1CCN(C)C(=O)CCCn1ccnc1[N+](=O)[O-]

>  <TGI>
> 100 µM

$$$$
>  <compound>
N#Cc1ncc(-c2ccc(C(F)(F)F)cc2)c(NCc2cc(C(F)(F)F)cc(C(F)(F)F)c2)n1

>  <TGI>
> 100 µM

$$$$
>  <compound>
Cc1ccc(O)c(C(c2ccc([N+](=O)[O-])cc2)c2cc(C)ccc2O)c1

>  <TGI>
23.8 µM

$$$$
>  <compound>
CC[O-].CC[O-].O=C([CH-]C(=O)c1cccnc1)c1ccccc1.O=C([CH-]C(=O)c1cccnc1)c1ccccc1.[Ti+4]

>  <TGI>
> 100 µM

$$$$
>  <compound>
O=C(NCCCCN(CCCNC(=O)C(F)(F)F)Cc1ccc2ccccc2c1)C(F)(F)F

>  <TGI>
37.8 µM

$$$$
>  <compound>
CCOC(=O)c1sc2ncn(Cc3cccc(Br)c3)c(=O)c2c1C

>  <TGI>
81.3 µM

$$$$
>  <compound>
Cn1cc(C2=C(c3cccc(N)c3)C(=O)NC2=O)c2ccccc21

>  <TGI>
> 25 µM

$$$$
>  <compound>
Nc1cc(C(=O)O)[nH]c(=O)n1

>  <TGI>
> 100 µM

$$$$
>  <compound>
CCCCCc1nc2c(c3c1CCCC3)CCCC2

>  <TGI>
95.3 µM

$$$$
>  <compound>
COc1cccc(C2C3=C(COC3=O)N(CCO)c3cc(OC)ccc32)c1 (configuration not stated)

>  <TGI>
> 100 µM

$$$$
>  <compound>
CN(C)CCN(C)CC1COC(C)(C)O1 (configuration not stated)

>  <TGI>
> 100 µM

$$$$
>  <compound>
CC(=O)N1CN2C(=O)CCC2c2ccccc21 (configuration not stated)

>  <TGI>
> 100 µM

$$$$
>  <compound>
O=C(Nc1ccc(F)cc1)Nc1ccccc1CNc1nc(Nc2ccc(OCCN3CCCC3)cc2)ncc1Cl

>  <TGI>
2.93 µM

$$$$

====

# System: 786-0 renal
# experimental-details: NCI tumour cell line growth inhibition, 48 h
measured-metric: TGI

>  <compound>
CC(=O)NNc1nc(C)c(C(/C=C/c2ccc([N+](=O)[O-])cc2)=N/N)s1

>  <measured-metric>
TGI

>  <value-measured>
> 100 µM

$$$$
>  <compound>
CC(=O)O[C@]12CCCCC1C1(O)C(O)CCCCC12 (stereo partly specified)

>  <measured-metric>
TGI

>  <value-measured>
> 100 µM

$$$$
>  <compound>
CC1=C(/C=C/C(=O)O)C(C)(C)CCC1

>  <measured-metric>
TGI

>  <value-measured>
> 100 µM

$$$$
>  <compound>
CCN(CC)c1ccc(/C=C2/C[N+](C)(C)C/C(=C/c3ccc(N(CC)CC)cc3)C2=O)cc1

>  <measured-metric>
TGI

>  <value-measured>
13.6 µM

$$$$
>  <compound>
COc1ccc2c(c1O)C13CCN(C)C(C2)C1CCC1(C3)OCCO1 (stereo unspecified)

>  <measured-metric>
TGI

>  <value-measured>
> 100 µM

$$$$
>  <compound>
COP(=O)(Cc1ccc(/C=C/C#N)o1)OC

>  <measured-metric>
TGI

>  <value-measured>
> 100 µM

$$$$

The values you see were collected from PubChem BioAssay (NCI).
